# MEASUREMENT_TARGET: T1, recombinant human Ang4 carrier-free (R&D Systems, Cat#964-AN-025/CF) (human, UniProt Q9Y264 25-503, limits assumed)
# T1 construct: Bought recombinant protein; also called angiopoietin 4
# T1 sequence: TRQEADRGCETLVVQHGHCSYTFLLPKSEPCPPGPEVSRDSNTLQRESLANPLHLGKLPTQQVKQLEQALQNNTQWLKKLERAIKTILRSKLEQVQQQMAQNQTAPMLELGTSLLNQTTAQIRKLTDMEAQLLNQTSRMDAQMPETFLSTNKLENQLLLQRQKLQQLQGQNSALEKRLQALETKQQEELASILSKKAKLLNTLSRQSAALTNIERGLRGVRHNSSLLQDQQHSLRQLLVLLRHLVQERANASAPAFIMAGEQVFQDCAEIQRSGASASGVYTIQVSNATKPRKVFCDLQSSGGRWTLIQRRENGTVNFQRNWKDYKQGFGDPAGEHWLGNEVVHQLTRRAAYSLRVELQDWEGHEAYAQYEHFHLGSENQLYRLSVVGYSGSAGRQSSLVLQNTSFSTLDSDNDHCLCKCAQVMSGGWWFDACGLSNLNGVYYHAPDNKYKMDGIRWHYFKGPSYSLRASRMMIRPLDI
# ASSAY_TEXT: SPR (BIAcore), Ang4 immobilised on CM5, peptide 0.625-0.039 µM, 1:1 Langmuir fit
OBSERVED_PROPERTY: Kd (nM)
Reply with just the number (in nM).

Provide only the value of recorded Kd for Ac-QHSLRQLLVLLRHLVQERANASA-NH2 (MW 2694.3) [CGEN-F12 (SEQ ID NO: 8)]
0.243

Provide only the value of recorded Kd for Ac-TQQVKQLEQALQNNTQWLKKLERAIKTIL-NH2 [CGEN-G2 (SEQ ID NO: 11)]
25
